Target: Testis-specific serine/threonine-protein kinase 1 (Homo sapiens) (UniProt Q9BXA7);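 note: mean percent inhibition of TSSK1, from the GSK PKIS screening dataset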
Sequence (whole entry): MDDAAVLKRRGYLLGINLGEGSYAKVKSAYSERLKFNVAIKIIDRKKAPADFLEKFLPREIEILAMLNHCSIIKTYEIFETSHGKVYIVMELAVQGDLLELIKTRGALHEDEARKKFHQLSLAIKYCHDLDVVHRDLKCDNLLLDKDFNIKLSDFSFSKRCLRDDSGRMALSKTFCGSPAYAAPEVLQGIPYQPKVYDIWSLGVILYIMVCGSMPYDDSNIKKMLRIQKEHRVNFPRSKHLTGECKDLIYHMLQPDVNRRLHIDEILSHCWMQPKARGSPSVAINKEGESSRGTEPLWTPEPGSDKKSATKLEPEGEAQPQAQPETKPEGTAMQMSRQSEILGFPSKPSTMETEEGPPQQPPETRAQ
Conditions: at 0.1 µM
Property: inhibition; scope: individual molecules

{"Molecule": "Cc1ccc(NC(=O)c2ccnc(N3CCCC3)c2)cc1-c1ccc(C(=O)NCC2CC2)cc1", "inhibition [%]": 3.77}
{"Molecule": "COc1ccc2cc(-c3c(-c4ccncc4)nc(-c4ccc([S+](C)[O-])cc4)n3C)ccc2c1 (stereo not given)", "inhibition [%]": 3.26}
{"Molecule": "CCCN1CCC(Oc2cc(Nc3nc(Nc4cccc(F)c4C(N)=O)c4cc[nH]c4n3)c(OC)cc2Cl)CC1", "inhibition [%]": 21.3}
{"Molecule": "CC(C)=Cc1cccc2c1/C(=N/Nc1ccc(S(N)(=O)=O)cc1)C(=O)N2", "inhibition [%]": 1.27}
{"Molecule": "O=C1NC(=O)C(N2CCc3ccccc32)=C1c1ccc(Cl)cc1", "inhibition [%]": 3.65}
{"Molecule": "Fc1cccc(COc2ccc(Nc3ncnc4cc(-c5ccc[nH]5)sc34)cc2Cl)c1", "inhibition [%]": 2.48}
{"Molecule": "Cc1cc(O)cc(C)c1/C=C/c1cncc(-c2nn[nH]n2)c1", "inhibition [%]": 2.79}
{"Molecule": "COc1cc2ncn(-c3cc(OCc4ccccc4C(F)(F)F)c(C(N)=O)s3)c2cc1OC", "inhibition [%]": 2.93}
{"Molecule": "c1cnn2ncc(-c3ccnc(Nc4ccc5c(c4)OCCO5)n3)c2c1", "inhibition [%]": 4.39}
{"Molecule": "CS(=O)(=O)CCNCc1nc(-c2ccc3ncnc(Nc4ccc(F)c(Cl)c4)c3c2)cs1", "inhibition [%]": 1.9}
{"Molecule": "O=C1NC(=O)C(c2ccccc2Cl)=C1Nc1cccc(O)c1", "inhibition [%]": 1.56}
{"Molecule": "O=C1NC(=O)C(c2cccc(Cl)c2)=C1Nc1ccc(O)c(Cl)c1", "inhibition [%]": 1.11}
{"Molecule": "CCn1c(-c2nonc2N)nc2cncc(C(=O)N3CCNCC3)c21", "inhibition [%]": 4.82}
{"Molecule": "N#Cc1c(NC(=O)c2cccc3ccccc23)sc2c1CCCC2", "inhibition [%]": 3.39}
{"Molecule": "NC(=O)c1cccc(Nc2nccc(Nc3cccc4[nH]ncc34)n2)c1", "inhibition [%]": -0.96}
